STUDY_TARGET: PI3Kγ (Homo sapiens, UniProt P48736)
Construct: made in house
Sequence (P48736 whole entry): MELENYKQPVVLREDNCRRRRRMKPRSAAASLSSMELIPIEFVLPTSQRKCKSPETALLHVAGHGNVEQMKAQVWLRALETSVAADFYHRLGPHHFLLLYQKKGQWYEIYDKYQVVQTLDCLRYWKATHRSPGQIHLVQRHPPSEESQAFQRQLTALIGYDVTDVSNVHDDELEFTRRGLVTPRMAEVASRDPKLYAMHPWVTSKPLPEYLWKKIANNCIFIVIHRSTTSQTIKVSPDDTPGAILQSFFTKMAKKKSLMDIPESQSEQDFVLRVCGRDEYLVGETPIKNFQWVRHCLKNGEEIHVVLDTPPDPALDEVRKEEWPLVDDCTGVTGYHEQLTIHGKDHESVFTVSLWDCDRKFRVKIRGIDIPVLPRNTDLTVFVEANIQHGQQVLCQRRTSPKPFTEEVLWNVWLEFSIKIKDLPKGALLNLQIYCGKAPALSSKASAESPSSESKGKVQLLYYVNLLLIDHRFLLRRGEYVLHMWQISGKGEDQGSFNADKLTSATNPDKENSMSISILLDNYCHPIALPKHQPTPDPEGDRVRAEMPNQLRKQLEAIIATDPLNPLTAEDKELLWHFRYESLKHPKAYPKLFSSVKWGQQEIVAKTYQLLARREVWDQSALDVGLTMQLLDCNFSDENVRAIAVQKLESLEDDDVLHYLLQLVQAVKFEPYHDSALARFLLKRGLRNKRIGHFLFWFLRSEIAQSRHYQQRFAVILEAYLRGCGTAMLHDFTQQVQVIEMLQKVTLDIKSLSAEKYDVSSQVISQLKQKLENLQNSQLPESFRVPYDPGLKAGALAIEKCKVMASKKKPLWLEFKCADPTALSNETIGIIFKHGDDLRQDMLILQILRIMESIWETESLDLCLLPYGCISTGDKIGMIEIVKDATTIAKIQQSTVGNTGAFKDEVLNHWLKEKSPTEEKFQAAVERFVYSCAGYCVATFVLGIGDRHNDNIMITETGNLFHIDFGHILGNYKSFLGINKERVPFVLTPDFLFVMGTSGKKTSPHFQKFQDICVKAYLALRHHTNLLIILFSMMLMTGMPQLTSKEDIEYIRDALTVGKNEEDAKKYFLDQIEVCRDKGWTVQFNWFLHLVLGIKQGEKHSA
PROTOCOL_DESCRIPTION: TR-FRET enzymatic activity assay, PI3Kγ
Format: biochemical
ASSAY_CONDITIONS: Table 2a; same assay; read-out: PI3Kγ IC50
pIC50: −log10 of the molar value.
MEASURED_METRIC: pIC50

C[C@H](Nc1nc(N)nc(C(F)F)c1C#N)c1nc2cccc(F)c2c(=O)n1-c1cc[nH]n1 [Compound 191]
< 5.00

Requested read-out pIC50, target or system PI3Kγ (Homo sapiens, UniProt P48736), entry C[C@H](Nc1nc(N)nc(C(F)(F)F)c1C#N)c1nc2cccc(Cl)c2c(=O)n1-c1cc[nH]n1 [Compound 168]
< 5.00

Now this one: C[C@H](Nc1nc(N)nc(C(F)F)c1C#N)c1nc2c(C(F)F)cc(F)cc2c(=O)n1-c1cc[nH]n1 [Compound 142]
< 5.00

Ref: patent US10308639B2
